Source listed as patent US8476197B2.

Conditions: pH 2.7
Marks after values point to notes of the source that are not given here.
Recorded Log P, one value per entry.

Input: Quick check: Log P of `CC(C)[C@H](C)N/C(=C(/C#N)C(=O)NC1COC1)c1cn(C)nc1C(F)F` ?
Output: 1.84^[a]

Input: Next: `CCOC(=O)C(C#N)=C(NC(C)(C)C(=O)OC)c1cn(C)nc1C(F)F`
Output: 2.51^[a]

Input: Next: C=CCCCC(C=C)NC(=C(C#N)C(=O)OCC)c1ncc(C(F)(F)F)cc1Cl (racemic)
Output: 4.82^[a]

Input: Next: CCOC(=O)C(C#N)=C(NC1CCc2cccnc21)c1cccnc1Cl (centres unmarked)
Output: 2.4^[a]

Input: Next: CCOC(=O)C(C#N)=C(NC(C)c1nccs1)c1ccnc(C(F)(F)F)c1Cl (centres unmarked)
Output: 3.46^[a]

Input: Next: CCOC(=O)C(C#N)=C(NC(C)C(=O)NC)c1cc(Cl)ncc1Cl (centres unmarked)
Output: 2.19^[a]

Input: Next: C#CC(C)NC(=C(C#N)C(=O)OCC)c1sccc1C(F)(F)F (centres unmarked)
Output: 3.25^[a]

Input: Next: COC(=O)C(C#N)=C(NC(C)C(N)=O)c1cn(C)nc1C(F)F (centres unmarked)
Output: 1.3^[a]

----------
Conditions: pH 2.7
Marks after values point to notes of the source that are not given here.
Recorded Log P, one value per entry.

MOLECULE: CCOC(=O)C(C#N)=C(NC(C)c1nccs1)c1nsc(Cl)c1Cl (racemic)
Log P: 3.29^[a]

MOLECULE: CCOC(=O)C(C#N)=C(NC(C)CN)c1sccc1Br (stereo not drawn)
Log P: 1.1^[a]

MOLECULE: CC(C)C(C)NC(=C(C#N)C(=O)NN(C)C)c1cccnc1Cl (stereo not drawn)
Log P: 2.08^[a]

MOLECULE: CC(C)C(C)NC(=C(C#N)C(=O)N1CCSC1)c1cccnc1Cl (stereo not drawn) [Compound 1618]
Log P: 3.1^[a]

MOLECULE: CCOC(=O)C(C#N)=C(NC(C)c1ccc(Cl)cc1)c1ncc(C(F)(F)F)cc1Cl (stereo not drawn)
Log P: 4.56^[a]

MOLECULE: CCOC(=O)C(C#N)=C(NC1CCC1)c1ccncc1C(F)(F)F
Log P: 3.6^[a]

MOLECULE: CCOC(=O)C(C#N)=C(NC(C)C(N)=O)c1ccnc(Cl)c1Cl (stereo not drawn)
Log P: 1.88^[a]

MOLECULE: CCOC(=O)C(C#N)=C(NC(C)c1ncc(C)s1)c1sccc1C(F)(F)F (stereo not drawn)
Log P: 3.67^[a]

From here, focus on the item given below.
Input: Quick check: Log P of CCOC(=O)C(C#N)=C(NC(C)C(N)=O)c1sccc1Cl (stereo not drawn) ?
Output: 1.9^[a]

----------
Recorded Log P, one value per entry.
Details: pH 2.7
Marks after values point to notes of the source that are not given here.

Take a look at these entries with their results.
COMPOUND: CCOC(=O)C(C#N)=C(NC(C)c1cccc2ccccc12)c1nc(Cl)ccc1Cl (stereo not shown) [Compound 1]
Log P: 4.4^[a]
--
COMPOUND: CCOC(=O)C(C#N)=C(NC1CC2CCC1C2)c1cccnc1Cl (stereo not shown) [Compound 1082]
Log P: 3.74^[a]

From here, focus on the item given below.
Input: Quick check: Log P of C=CCCCC(C=C)NC(=C(C#N)C(=O)OC)c1sc(C)nc1C(F)(F)F (stereo not shown) [Compound 1019] ?
Output: 4.19^[a]

----------
Settings: pH 2.7
Marks after values point to notes of the source that are not given here.
Recorded Log P, one value per entry.

Take a look at these entries with their results.
COMPOUND: CCOC(=O)C(C#N)=C(NC1COC1)c1cn(C)nc1C(F)F
MEASUREMENT LABEL: Log P
RESULT: 1.79^[a]
//
COMPOUND: CCOC(=O)C(C#N)=C(NC(C)C(=O)CC)c1cccnc1Cl (racemic)
MEASUREMENT LABEL: Log P
RESULT: 2.64^[a]
//
COMPOUND: CCOC(=O)C(C#N)=C(NC(C)Cc1c[nH]c2ccccc12)c1ncc(C(F)(F)F)cc1Cl (racemic)
MEASUREMENT LABEL: Log P
RESULT: 4.07^[a]
//
COMPOUND: CCOC(=O)C(C#N)=C(NC(C)CF)c1cn(C)cc1C(F)(F)F (stereo not drawn)
MEASUREMENT LABEL: Log P
RESULT: 2.95^[a]
//
COMPOUND: CC#CC(C)(C)NC(=C(C#N)C(=O)OCC)c1sccc1C(F)(F)F
MEASUREMENT LABEL: Log P
RESULT: 3.92^[a]

Input: Quick check: Log P of CCOC(=O)C(C#N)=C(NC(C)C(=O)NC)c1ccnc(Cl)c1F (stereo not drawn) ?
Output: 2.15^[a]

Input: Next: `COC(=O)C(C#N)=C(Nc1ccc(OC)cc1)c1sc(C)nc1C(F)(F)F`
Output: 3.06^[a]

Input: Next: CCOC(=O)C(C#N)=C(NC(C)c1sc(C)nc1C)c1cn(C)nc1C(F)F (racemic)
Output: 2.43^[a]

Input: Next: CCOC(=O)C(C#N)=C(NC(C)c1ccc(Cl)cc1)c1cn(C)nc1C(F)(F)F (stereo not drawn)
Output: 3.95^[a]

Input: Next: CCOC(=O)C(C#N)=C(NC(C(=O)OC)C(C)C)c1ccsc1Br (stereo not drawn) [Compound 716]
Output: 3.71^[a]

----------
Details: pH 2.3
Marks after values point to notes of the source that are not given here.
MEASUREMENT LABEL: Log P

Take a look at these entries with their results.
COMPOUND: CC(C)C(C)NC(=C(C#N)C(=O)OC1CCC1)c1cccnc1Cl (stereo not drawn)
RESULT: 3.79^[c]; 3.79^[b]
--
COMPOUND: C=CCOc1ncccc1C(NC(C)c1nccs1)=C(C#N)C(=O)OCC (racemic)
RESULT: 2.03^[c]; 2.03^[b]
--
COMPOUND: CC(C)C(C)NC(=C(C#N)C(=O)NC1CCC1)c1cccnc1Cl (stereo not drawn)
RESULT: 3.44^[c]; 3.44^[b]
--
COMPOUND: CCOC(=O)C(C#N)=C(NC(C)C(C)C)c1cccnc1-c1ccc(Cl)c(Cl)c1 (stereo not drawn)
RESULT: 4.56^[c]; 4.56^[b]
--
COMPOUND: CC(C)C(C)NC(=C(C#N)C(=O)NC1CC1F)c1cccnc1Cl (stereo not drawn)
RESULT: 2.83^[c]; 2.83^[b]

Input: Quick check: Log P of C=CCNC(=O)C(C#N)=C(NC(C)C(C)C)c1cccnc1Cl (stereo not drawn) ?
Output: 3^[c]; 3^[b]

----------
Settings: pH 2.7
Marks after values point to notes of the source that are not given here.
MEASUREMENT LABEL: Log P

Take a look at these entries with their results.
COMPOUND: COC(=O)C(C#N)=C(NC1(c2c(F)cccc2F)CC1)c1cccnc1Cl [Compound 380]
MEASUREMENT LABEL: Log P
RESULT: 2.8^[a]
//
COMPOUND: CCOC(=O)C(C#N)=C(NC(C)c1ccccn1)c1cn(C)nc1C(F)F (racemic) [Compound 36]
MEASUREMENT LABEL: Log P
RESULT: 2.33^[a]
//
COMPOUND: CCOC(=O)C(C#N)=C(NCc1ccccn1)c1conc1C [Compound 81]
MEASUREMENT LABEL: Log P
RESULT: 1.96^[a]

Input: Quick check: Log P of COC(=O)C(C#N)=C(Nc1cccc(Cl)c1)c1sc(C)nc1C(F)(F)F [Compound 518] ?
Output: 3.53^[a]

Input: Next: CCOC(=O)C(C#N)=C(NC(CC)c1ccccc1OC)c1cn(C)nc1C(F)F (racemic) [Compound 557]
Output: 3.62^[a]

Input: Next: CCOC(=O)C(C#N)=C(NC(C)Cc1c[nH]c2ccccc12)c1ccsc1Br (stereo not shown) [Compound 106]
Output: 3.8^[a]

Input: Next: CCOC(=O)C(C#N)=C(NC(C)c1ccccn1)c1nsc(Cl)c1Cl (stereo not shown) [Compound 71]
Output: 3.35^[a]

Input: Next: CCOC(=O)C(C#N)=C(NC(C)C(N)=O)c1sccc1C(F)(F)F (racemic) [Compound 660]
Output: 2.13^[a]

Input: Next: CCOC(=O)C(C#N)=C(NC1(c2ccc(Cl)cc2)CC1)c1cn(C)nc1C(F)F [Compound 1360]
Output: 3.58^[a]

Input: Next: CCOC(=O)C(C#N)=C(NC(C)C1CC1)c1sccc1Br (stereo not shown) [Compound 885]
Output: 3.76^[a]

Input: Next: CCOC(=O)C(C#N)=C(NC(C)c1ccc(F)cc1)c1ccsc1Br (racemic) [Compound 531]
Output: 3.89^[a]

Input: Next: CCCCCCC(C)NC(=C(C#N)C(=O)OCC)c1c(C)nn(C)c1F (racemic) [Compound 813]
Output: 4.51^[a]

Input: Next: CCOC(=O)C(C#N)=C(NC(C)(C)C#Cc1ccc(C)cc1)c1cn(C)nc1C(F)F [Compound 1097]
Output: 4.11^[a]
